Source listed as the supplement of paper PMC10307832.

test system: CAL-12T; experiment: relative viability (nuclei count vs DMSO), 5 days (fraction); higher = more cells survive; details: first compound 2.53 µM
Exercise: state measured relative viability for each of the compounds provided.

Problem: Report relative viability, nothing else, for this compound: COc1nc(C)cnc1NS(=O)(=O)c1cccnc1-c1ccc(-c2nnco2)cc1 [Zibotentan] + CS(=O)(=O)CCNCc1ccc(-c2ccc3ncnc(Nc4ccc(OCc5cccc(F)c5)c(Cl)c4)c3c2)o1 [Lapatinib] (partner 2 µM)
Solution: 0.652

Problem: Report relative viability, nothing else, for this compound: COc1nc(C)cnc1NS(=O)(=O)c1cccnc1-c1ccc(-c2nnco2)cc1 [Zibotentan] + CS(=O)(=O)N1CCN(Cc2cc3nc(-c4cccc5[nH]ncc45)nc(N4CCOCC4)c3s2)CC1 [Pictilisib] (partner 1 µM)
Solution: 0.513

Problem: Report relative viability, nothing else, for this compound: COc1nc(C)cnc1NS(=O)(=O)c1cccnc1-c1ccc(-c2nnco2)cc1 [Zibotentan] + Cc1nc(Nc2ncc(C(=O)Nc3c(C)cccc3Cl)s2)cc(N2CCN(CCO)CC2)n1 [Dasatinib] (partner 0.075 µM)
Solution: 0.479

Problem: Report relative viability, nothing else, for this compound: O=c1cc(-c2cccc3c2Sc2ccccc2S3)oc(N2CCOCC2)c1 + NC(=O)Nc1cc(-c2cccc(F)c2)sc1C(=O)N[C@H]1CCCNC1 [AZD7762] (partner 0.2 µM)
Solution: 0.626

Problem: Report relative viability, nothing else, for this compound: O=c1cc(-c2cccc3c2Sc2ccccc2S3)oc(N2CCOCC2)c1 + CCNC(=O)c1noc(-c2cc(C(C)C)c(O)cc2O)c1-c1ccc(CN2CCOCC2)cc1 [Luminespib] (partner 0.01 µM)
Solution: 0.299

Problem: Report relative viability, nothing else, for this compound: O=c1cc(-c2cccc3c2Sc2ccccc2S3)oc(N2CCOCC2)c1 + CC(=O)c1c(C)c2cnc(Nc3ccc(N4CCNCC4)cn3)nc2n(C2CCCC2)c1=O [Palbociclib] (partner 0.5 µM)
Solution: 0.404

Problem: Report relative viability, nothing else, for this compound: O=c1cc(-c2cccc3c2Sc2ccccc2S3)oc(N2CCOCC2)c1 + O=C(c1cc(Cc2n[nH]c(=O)c3ccccc23)ccc1F)N1CCN(C(=O)C2CC2)CC1 [Olaparib] (partner 8 µM)
Solution: 0.731

Problem: Report relative viability, nothing else, for this compound: COc1nc(C)cnc1NS(=O)(=O)c1cccnc1-c1ccc(-c2nnco2)cc1 [Zibotentan] + Cc1nc(NC(=O)N2CCC[C@H]2C(N)=O)sc1-c1ccnc(C(C)(C)C(F)(F)F)c1 [Alpelisib] (partner 2 µM)
Solution: 1.23

Problem: Report relative viability, nothing else, for this compound: COc1nc(C)cnc1NS(=O)(=O)c1cccnc1-c1ccc(-c2nnco2)cc1 [Zibotentan] + C[C@@H](Oc1cc(-c2cnn(C3CCNCC3)c2)cnc1N)c1c(Cl)ccc(F)c1Cl [Crizotinib] (partner 1 µM)
Solution: 0.712

###

Exercise: state measured relative viability for each of the compounds provided.
test system: NCI-H1563; assay: relative viability (nuclei count vs DMSO), 5 days (fraction); higher = more cells survive; conditions: first compound 20 µM

Problem: Report relative viability, nothing else, for this compound: COCC1(CO)C(=O)C2CCN1CC2 (stereo not given) [PRIMA-1MET] + CS(=O)(=O)N1CCN(Cc2cc3nc(-c4cccc5[nH]ncc45)nc(N4CCOCC4)c3s2)CC1 [Pictilisib] (partner 1 µM)
Solution: 0.345

Problem: Report relative viability, nothing else, for this compound: COCC1(CO)C(=O)C2CCN1CC2 (stereo not given) [PRIMA-1MET] + N=C(N)NC(=N)NCCc1ccccc1 [Phenformin] (partner 250 µM)
Solution: 0.302

Problem: Report relative viability, nothing else, for this compound: COCC1(CO)C(=O)C2CCN1CC2 (stereo not given) [PRIMA-1MET] + COc1cc2c(Oc3ccc(NC(=O)C4(C(=O)Nc5ccc(F)cc5)CC4)cc3F)ccnc2cc1OCCCN1CCOCC1 [Foretinib] (partner 0.25 µM)
Solution: 0.288

Problem: Report relative viability, nothing else, for this compound: COCC1(CO)C(=O)C2CCN1CC2 (stereo not given) [PRIMA-1MET] + Cc1nc(Nc2ncc(C(=O)Nc3c(C)cccc3Cl)s2)cc(N2CCN(CCO)CC2)n1 [Dasatinib] (partner 0.075 µM)
Solution: 0.422

Problem: Report relative viability, nothing else, for this compound: COCC1(CO)C(=O)C2CCN1CC2 (stereo not given) [PRIMA-1MET] + C[C@]1(O)C[C@@H](c2nc(-c3ccc4ccc(-c5ccccc5)nc4c3)c3c(N)nccn32)C1 [Linsitinib] (partner 1 µM)
Solution: 0.368
